The entries below pair compounds with pIC50 values for human mPGES-1 (Homo sapiens), as found in several publications.
Give bare numbers, as −log10 of the molar value.

Example compounds with recorded pIC50:
NS(=O)(=O)c1ccccc1S(=O)(=O)NC(=O)c1ccc(-c2nc3cnccc3o2)cc1	5.96
CCc1cccc(-c2nc(O)nc(-c3cc(CNC(=O)[C@@](C)(OC)C(F)(F)F)ccc3Cl)n2)c1	8.92
NS(=O)(=O)c1ccc(F)cc1NS(=O)(=O)CCc1ccc2ccccc2c1	6.12
CC(C)C#Cc1ccc(C(=O)NS(=O)(=O)c2ccccc2S(N)(=O)=O)cc1OCC(F)(F)C(F)F	7.62
O=C(Nc1cc(C(=O)NC2CCCCC2)c2nc[nH]c2c1)c1ccccc1C(F)(F)F	8.12
COCc1nc2c(C(=O)Nc3cccc(Cl)c3C)cc(NC(=O)c3ccccc3C(F)(F)F)cc2[nH]1	8.18

Please look at the items below and tell me pIC50 for each one, in order.
1. Oc1nc(-c2ccc(C(F)(F)F)cc2)nc(-c2c(F)cccc2Cl)n1
2. CN(C)C(=O)c1ccc(Cl)c(-c2nc(O)nc(-c3ccc(OCC4CC4)cc3)n2)c1
3. NS(=O)(=O)c1ccccc1NS(=O)(=O)CCc1ccc(C#CC2CCCC2)cc1OCC1CCOCC1
4. CC(C)(C)C#Cc1cccc(C(=O)NS(=O)(=O)c2ccccc2S(N)(=O)=O)c1
5. C[C@]1(C(=O)NS(=O)(=O)c2ccccc2S(N)(=O)=O)CC[C@@H](c2cc3ccccc3o2)CC1
6. C/C(=C\c1ccc(Cl)cc1)S(=O)(=O)Nc1ccc(C)cc1S(N)(=O)=O
7. CCn1cnc2c(C(=O)NC3CCCCC3)cc(NC(=O)c3ccccc3C(F)(F)F)cc21

[7.14, 5.22, 8.68, 6.57, 6.57, 5.12, 6.85]

Please look at the items below and tell me pIC50 for each one, in order.
1. NS(=O)(=O)c1ccccc1S(=O)(=O)NC(=O)c1ccc(-c2cc3ccccc3o2)cc1Cl
2. NS(=O)(=O)c1ccccc1S(=O)(=O)NC(=O)c1ccc(C#CC2CCCC2)nc1

1. 6.92
2. 7.24
